system: A498 renal; assay: NCI-60 one-dose screen, 48 h (100 = growth as untreated, 0 = no growth, -100 = all killed); details: 10 µM unless noted
The panel holds about 83,000 compounds, 20% with a hit somewhere; the sample as a whole holds those more often.
Mark Satisfied only for growth values smaller than 50%; exact matches and larger values are Not satisfied.

Solved entries (count: 10):
compound	target	classification
C=C1C(=O)O[C@H]2[C@H]1CC/C(CNC(=O)/C=C/c1cc(OC)c(OC)c(OC)c1)=C\CC[C@@]1(C)O[C@@H]21	A498 renal	Satisfied
O=C(CSc1nnc(-c2ccc(Cl)c(Cl)c2)n1-c1ccccc1)Nc1ccc(C(=O)/C=C/c2ccc(Cl)cc2)cc1	A498 renal	Not satisfied
Nc1nc(Nc2ccc([N+](=O)[O-])cc2O)nc(C(Cl)(Cl)Cl)n1	A498 renal	Satisfied
COc1ccc(-c2cc(-c3ccc(N(C)C)cc3)nc(NC(=O)c3cccnc3)n2)cc1	A498 renal	Not satisfied
COc1ccc(C(c2cc(OC)c(OC)c(OC)c2)n2cncn2)cc1O (configuration not stated)	A498 renal	Satisfied
CCCCCCCCCCCCCCCCCCOc1ccccc1CC(=O)OCC[N+]1(C)CCCCC1	A498 renal	Not satisfied
c1ccc(-c2cn3nc(-c4c[nH]c5ccccc45)sc3n2)cc1	A498 renal	Not satisfied
Cc1cc2c(c(C)n1)CN(C(=O)Nc1nc(-c3cncs3)ccc1N)C2	A498 renal	Not satisfied
CCN1C(=O)N(CC)C2C1NC(=S)N2/N=C/C=C/c1ccccc1 (configuration not stated)	A498 renal	Satisfied
O=c1[nH]c(CN2CCN(c3ccccc3)CC2)nc2c(Br)cc(Br)cc12	A498 renal	Not satisfied

Input line: Check if growth falls below 50% for "Cc1ccc(NC(=O)c2ccc(Nc3ncnc4c3cnn4-c3cccc(F)c3)cc2)cc1" .
Output line: Not satisfied

Input line: Decide: growth of "COC(=O)c1cc(-c2cc(OC)c(OC)c(OC)c2)[nH]c1N/N=C/c1c(Cl)cccc1Cl" strictly below 50%?
Output line: Satisfied

Input line: I wonder whether "COc1cc(OC)cc(C(=O)Nc2cnc(Nc3ccc(N4CCOCC4)nc3)nc2Oc2ccc(C(F)(F)F)cc2)c1" has growth below 50%. Can you tell?
Output line: Not satisfied

Input line: Dear reviewer, please state whether "CNC(=O)c1cc(Oc2cccc3nc(NC(=O)Nc4ccc(F)cc4F)ccc23)ccn1" has growth strictly beneath 50%.
Output line: Not satisfied

Input line: Take the compound "CCCCC/C=C/CCC(=O)N[C@H]1[C@H](Oc2c3cc4cc2Oc2ccc(cc2Cl)[C@@H](O[C@@H]2O[C@H](CO)[C@@H](O)[C@H](O)[C@H]2NC(C)=O)[C@@H]2NC(=O)[C@H](NC(=O)[C@@H]4NC(=O)[C@H]4NC(=O)[C@@H](Cc5ccc(c(Cl)c5)O3)NC(=O)[C@@H](N)c3ccc(O)c(c3)Oc3cc(O)cc4c3)c3ccc(O)c(c3)-c3c(O[C@H]4O[C@H](CO)[C@@H](O)[C@H](O)[C@@H]4O)cc(O)cc3[C@H](C(=O)O)NC2=O)O[C@H](CO)[C@H](O)[C@@H]1O" and say whether its growth is less than 50%.
Output line: Not satisfied

Input line: Record "CCCc1cc(CCC)n2nc(N)nc2n1" : is its growth strictly below 50%?
Output line: Not satisfied

Input line: Bench note: check whether "Nc1cc(-c2ccc(Cl)cc2)nn1-c1nc(-c2ccc(Br)cc2)cs1" shows growth below 50%
Output line: Not satisfied

Input line: Record "COc1cc(C(=O)/C=C/c2c(-c3cccs3)nc3sc(C)cn23)cc(OC)c1OC" : is its growth strictly below 50%?
Output line: Satisfied

Input line: Consider the compound "C=C(C)[C@@H]1CC[C@]2(C(=O)NC(C)=O)CC[C@]3(C)[C@H](CC[C@@H]4[C@@]5(C)CCCNC(C)(C)[C@@H]5CC[C@]43C)[C@@H]12" . Is its growth strictly less than 50%?
Output line: Not satisfied

Input line: Answer whether the compound O=CN1N=C(c2cccc(Nc3ccncc3)c2)CC1c1ccc2c(c1)OCO2 (configuration not stated) has growth strictly less than 50%
Output line: Not satisfied

Input line: API: query returns whether the compound falls strictly under 50% in growth. Query: "CCOC(=O)/C(=C/c1ccc([N+](=O)[O-])cc1)C(=O)c1ccccc1"
Output line: Not satisfied

Input line: I wonder whether "Cc1cc2c(C(C)C)c(O)c(O)c(/C=N/O)c2c(O)c1-c1c(C)cc2c(C(C)C)c(O)c(O)c(/C=N/O)c2c1O" has growth below 50%. Can you tell?
Output line: Not satisfied

Input line: Please state whether growth is below 50% for "C/C(=N\NC(=O)c1ccc(C(C)(C)C)cc1)c1ccc(O)cc1O"
Output line: Satisfied

Input line: Answer whether the compound "O=C(CSc1nnc(-c2cc(-c3ccc(Cl)cc3)nc3ccccc23)n1-c1ccccc1)Nc1ccc(Cl)cc1" has growth strictly less than 50%
Output line: Not satisfied

Input line: growth under 50%? Item: "CN1CCN(CCCNC(=O)c2c3c(n4ccccc24)C(=O)c2ncccc2C3=O)CC1"
Output line: Satisfied

Input line: Is it true that growth reported for "COc1cc(/C=N/NC(=O)c2ccc3nc(-c4ccc(Cl)cc4)[nH]c3c2)cc(OC)c1OC" is less than 50%?
Output line: Satisfied
